- System: Setaria viridis
- testName: Pre-emergence herbicidal effect
- Type: in vivo
- experimentalConditions: 320 g/ha, scored visually after 3 weeks vs untreated controls, 100% = plants have died
endpoint: Pre-emergence action SETVI (herbicidal activity in percent) (%)

compound	measurementTarget	recordedResult
CCOC(=O)OC1=C(c2c(Cl)cc(C)cc2OC)C(=O)N2CCOCCC12 (stereo not drawn) [Ib-1-22]	Setaria viridis	100
CCc1cccc(C)c1C1=C(OC(C)=O)C2CCOCCN2C1=O (stereo not drawn) [Ib-1-15]	Setaria viridis	100
COC(=O)OC1=C(c2c(Cl)cc(C)cc2OC)C(=O)N2CCOCCC12 (stereo not drawn) [Ib-1-21]	Setaria viridis	100
CCc1cc(Cl)cc(OC)c1C1=C(OC(=O)C(C)(C)C)C2CCOCCN2C1=O (stereo not drawn) [Ib-1-18]	Setaria viridis	100
CCc1cc(C)cc(CC)c1C1=C(OC(=O)OC)C2CCOCCN2C1=O (stereo not drawn) [Example Ib-1-1]	Setaria viridis	100
CCOC(=O)OC1=C(c2c(CC)cc(Cl)cc2OC)C(=O)N2CCOCCC12 (stereo not drawn) [Ib-1-17]	Setaria viridis	100
Cc1cc(C)c(C2=C(OC(=O)C(C)(C)C)C3CCOCCN3C2=O)c(C)c1 (stereo not drawn) [Ib-1-11]	Setaria viridis	100
CC(=O)OC1=C(c2c(C)cc(C)cc2C)C(=O)N2CCOCCC12 (stereo not drawn) [Ib-1-12]	Setaria viridis	100
CCc1cc(Cl)cc(OC)c1C1=C(OC(=O)C(C)(C)C)C2=CCOCCN2C1=O [Ib-3-10]	Setaria viridis	100
